Reported Extinction coefficient is given for each of the following molecules.
# assayMethodText: UV-Vis absorption and fluorescence spectroscopy of the Oxazine library
# Type: physicochemical
# testSettings: Beer's Law plots
Express the result in M⁻¹ cm⁻¹ but write the number alone.

Solved cases (3 shown):
structure: Cc1cc2nc3cc(C)c(=N)cc-3oc2cc1N
endpointUnit: M⁻¹ cm⁻¹
Extinction coefficient: 39303

structure: CC/N=c1/cc2oc3cc(NC)c(C)cc3nc-2cc1C
endpointUnit: M⁻¹ cm⁻¹
Extinction coefficient: 52291

structure: CC/N=c1/cc2oc3cc4c(cc3nc-2cc1C)C(C)=CC(C)(C)N4CC
endpointUnit: M⁻¹ cm⁻¹
Extinction coefficient: 54072

Now for the molecule whose Extinction coefficient we want.
Fill blank: measured Extinction coefficient of the molecule c1cc2nc3ccc(=[N+]4CCCC4)cc-3oc2cc1N1CCCC1 is ____.
48226

----------
# assayMethodText: UV-Vis absorption and fluorescence spectroscopy of the Oxazine library
# Type: physicochemical
In this section we review reported Max Abs values for a set of molecules.
Returns: string containing the number followed by the unit.

Look over these answered cases.
structure: CC/N=c1/cc2oc3cc(N4CCCC4)ccc3nc-2cc1C
observedValue: 640 nm
//
structure: CCNc1ccc2nc3ccc(=[N+](CC)CC)cc-3oc2c1
observedValue: 635 nm
//
structure: CCN1CCCc2cc3c(cc21)Oc1cc2c(cc1=N3)CCC[N+]=2CC
observedValue: 640 nm

Now for another entry.
Which Max Abs value is on record for CC/N=c1/cc2oc3cc4c(cc3nc-2cc1C)OCCN4CC ?
638 nm

----------
Consider the following compounds and their measured Quantum yield readings.
# assayMethodText: UV-Vis absorption and fluorescence spectroscopy of the Oxazine library
# Assay type: physicochemical
# testSettings: relative, references Oxazine 1, Oxazine 170, Rhodamine 101
Report only the number, with the unit % understood.

Before answering, review these 5 worked examples.
compound: CC/N=c1/cc2oc3cc4c(cc3nc-2cc1C)OCCN4 [LGW03-41]
endpointUnit: %
Quantum yield: 25.80
--
compound: CCN(CC)c1ccc2nc3ccc(=[N+](CC)CC)cc-3oc2c1.[O-][Cl+3]([O-])([O-])[O-] [OX-1, reference compound]
endpointUnit: %
Quantum yield: 7.40
--
compound: CC/N=c1/cc2oc3cc4c(cc3nc-2cc1C)CCCN4 [LGW03-12]
endpointUnit: %
Quantum yield: 27.22
--
compound: CCN1CCc2cc3c(cc21)Oc1cc2c(cc1=N3)CC[N+]=2CC [LGW07-59]
endpointUnit: %
Quantum yield: 32.17
--
compound: CC/N=c1/cc2oc3cc4c(cc3nc-2cc1C)C(C)=CC(C)(C)N4CC [LGW03-57]
endpointUnit: %
Quantum yield: 18.17

For CC/N=c1/cc2oc3cc(NCC)c(F)cc3nc-2cc1C [LGW05-81] , what is its reported Quantum yield?
43.02

Request the reported Quantum yield associated with CCNc1cc2oc3cc(=[N+](CC)CC)ccc-3nc2cc1Cl [LGW05-33]
3.84

Which Quantum yield is reported for this compound? C/N=c1/cc2oc3cc(NC)c(C)cc3nc-2cc1C [LGW01-61]
40.27

Sample CCN1CCCc2cc3c(cc21)Oc1cc2c(cc1=N3)CCC[N+]=2CC [LGW02-99] — what was its Quantum yield?
24.67

Given the entry CCN1CCOc2cc3nc4ccc(=[N+](CC)CC)cc-4oc3cc21 [LGW05-65] , report its measured Quantum yield.
7.85

Can you look up the measured Quantum yield of c1c2c(cc3c1Oc1cc4c(cc1=N3)OCCN=4)OCCN2 [LGW03-65] for me?
27.39

Find the recorded Quantum yield belonging to CC/N=c1/cc2oc3c(C)c(NCC)ccc3nc-2cc1C [LGW02-58] and report it.
25.26

Fill blank: measured Quantum yield of the compound CC[N+](CC)=c1ccc2nc3cc4c5c(c3oc-2c1)CCCN5CCC4 [LGW02-86] is ____.
13.18

Quick one: Quantum yield of CC/N=c1\ccc2nc3ccc(NCC)cc3oc-2c1 [LGW01-21] ?
30.12

Return reported Quantum yield; argument: CCNc1ccc2nc3ccc(=[N+](CC)CC)cc-3oc2c1C [LGW02-60]
8.98

Requested read-out: Quantum yield. Entry: CC/N=c1/cc2oc3cc(N)c(C)cc3nc-2cc1C [LGW06-10]
26.54

What value of measured Quantum yield is listed for CC/N=c1/cc2oc3cc4c(cc3nc-2cc1C)C(C)=CC(C)(C)N4 [LGW01-44] ?
21.63

Quantum yield lookup needed for CC[N+](CC)=c1ccc2nc3ccc(N4CCCC4)cc3oc-2c1 [LGW03-07] , thanks.
9.28

What value of measured Quantum yield is listed for CC/N=c1/cc2oc3cc(NCC)c(F)cc3nc-2cc1F [LGW05-91] ?
33.45

Data origin, for the record: patent US11492359B2
